MEASURED_ON: Proteasome Macropain subunit MB1 (Homo sapiens, UniProt P28074)
Sequence (P28074 whole entry): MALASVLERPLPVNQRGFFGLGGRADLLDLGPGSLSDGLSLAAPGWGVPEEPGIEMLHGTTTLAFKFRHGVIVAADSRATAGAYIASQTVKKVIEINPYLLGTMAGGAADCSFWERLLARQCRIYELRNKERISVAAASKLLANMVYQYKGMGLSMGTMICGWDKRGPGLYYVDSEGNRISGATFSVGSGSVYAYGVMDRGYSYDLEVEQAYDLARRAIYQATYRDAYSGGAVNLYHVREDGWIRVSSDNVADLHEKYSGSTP
EXPERIMENTAL_PROTOCOL: Inhibition of human 20S proteasome beta5 subunit using Suc-LLVY-AMC as substrate preincubated for 2 hrs followed by substrate addition and measured after 1 hr by fluorescence intensity assay
pIC50: −log10 of the molar value.
Please note: TRUE applies when pIC50 is 6 or greater, and FALSE applies otherwise.

Determine whether measured pIC50 meets or exceeds 6 for O=C(N[C@@H](Cc1coc2ccccc12)B(O)O)[C@H]1C[C@H]2CC[C@@H]1O2 FALSE

---
Determine whether measured pIC50 meets or exceeds 6 for Cc1ccc(C[C@H](NC(=O)Cc2ccccc2)B(O)O)cc1C FALSE

Determine whether measured pIC50 meets or exceeds 6 for O=C(Cc1ccccc1)N[C@@H](Cc1ccccc1)B(O)O FALSE

Determine whether measured pIC50 meets or exceeds 6 for O=C(Cc1cccnc1)N[C@@H](Cc1coc2ccccc12)B(O)O TRUE

Determine whether measured pIC50 meets or exceeds 6 for O=C(N[C@@H](Cc1coc2ccccc12)B(O)O)[C@@H]1CCOC1 FALSE

Data provenance: ChEMBL document CHEMBL5149996
